- target_of_assay: α-Lytic protease (Lysobacter enzymogenes)
- Sequence (P00778 25-397 limits assumed): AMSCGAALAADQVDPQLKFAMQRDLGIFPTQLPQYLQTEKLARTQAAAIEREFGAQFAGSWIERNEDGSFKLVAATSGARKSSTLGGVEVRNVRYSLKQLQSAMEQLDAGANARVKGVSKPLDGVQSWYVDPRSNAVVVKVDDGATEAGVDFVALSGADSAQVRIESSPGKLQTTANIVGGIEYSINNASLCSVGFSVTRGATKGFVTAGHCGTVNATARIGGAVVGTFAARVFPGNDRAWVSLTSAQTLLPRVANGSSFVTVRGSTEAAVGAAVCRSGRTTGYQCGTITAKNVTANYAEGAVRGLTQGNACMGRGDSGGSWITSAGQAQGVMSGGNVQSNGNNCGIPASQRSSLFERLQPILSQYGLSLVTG
- protocol: Esterase assay, α-lytic protease
- Type: biochemical
- cond: Z-AX-OMe substrate; normalised to alanine
Where a SMILES comes first, the peptide text is derived from it. The star is where a group is joined. Cbz = O=C(OCc1ccccc1)*
quantity_name: % activity, α-Lytic protease (%)

compound="COC(=O)[C@@H](NC(=O)[C@H](C)NC(=O)OCc1ccccc1)[C@@H](C)O [Thr] (Cbz-Ala-Thr-OMe)" target_of_assay="α-Lytic protease (Lysobacter enzymogenes)" quantity_name="% activity, α-Lytic protease" quantitative_result=67.7
compound="COC(=O)[C@H](C)NC(=O)[C@H](C)NC(=O)OCc1ccccc1 [Ala] (Cbz-Ala-Ala-OMe)" target_of_assay="α-Lytic protease (Lysobacter enzymogenes)" quantity_name="% activity, α-Lytic protease" quantitative_result=100
compound="COC(=O)[C@H](CC(=O)O)NC(=O)[C@H](C)NC(=O)OCc1ccccc1 [Asp] (Cbz-Ala-Asp-OMe)" target_of_assay="α-Lytic protease (Lysobacter enzymogenes)" quantity_name="% activity, α-Lytic protease" quantitative_result=0
compound="COC(=O)CNC(=O)[C@H](C)NC(=O)OCc1ccccc1 [Gly] (Cbz-Ala-Gly-OMe)" target_of_assay="α-Lytic protease (Lysobacter enzymogenes)" quantity_name="% activity, α-Lytic protease" quantitative_result=0
compound="COC(=O)[C@H](CCCNC(=N)N)NC(=O)[C@H](C)NC(=O)OCc1ccccc1 [Arg, Z-Ala-Arg-OMe] (Cbz-Ala-Arg-OMe)" target_of_assay="α-Lytic protease (Lysobacter enzymogenes)" quantity_name="% activity, α-Lytic protease" quantitative_result=0
compound="COC(=O)[C@H](CC(N)=O)NC(=O)[C@H](C)NC(=O)OCc1ccccc1 [Asn] (Cbz-Ala-Asn-OMe)" target_of_assay="α-Lytic protease (Lysobacter enzymogenes)" quantity_name="% activity, α-Lytic protease" quantitative_result=0
compound="COC(=O)[C@@H]1CCCN1C(=O)[C@H](C)NC(=O)OCc1ccccc1 [Pro] (Cbz-Ala-Pro-OMe)" target_of_assay="α-Lytic protease (Lysobacter enzymogenes)" quantity_name="% activity, α-Lytic protease" quantitative_result=0
compound="COC(=O)[C@H](CCC(N)=O)NC(=O)[C@H](C)NC(=O)OCc1ccccc1 [Gln] (Cbz-Ala-Gln-OMe)" target_of_assay="α-Lytic protease (Lysobacter enzymogenes)" quantity_name="% activity, α-Lytic protease" quantitative_result=0
compound="CC[C@H](C)[C@H](NC(=O)[C@H](C)NC(=O)OCc1ccccc1)C(=O)OC [Ile] (Cbz-Ala-Ile-OMe)" target_of_assay="α-Lytic protease (Lysobacter enzymogenes)" quantity_name="% activity, α-Lytic protease" quantitative_result=0
compound="COC(=O)[C@H](Cc1cnc[nH]1)NC(=O)[C@H](C)NC(=O)OCc1ccccc1 [His] (Cbz-Ala-His-OMe)" target_of_assay="α-Lytic protease (Lysobacter enzymogenes)" quantity_name="% activity, α-Lytic protease" quantitative_result=0
compound="COC(=O)[C@H](Cc1ccc(O)cc1)NC(=O)[C@H](C)NC(=O)OCc1ccccc1 [Tyr, Z-Ala-Tyr-OMe] (Cbz-Ala-Tyr-OMe)" target_of_assay="α-Lytic protease (Lysobacter enzymogenes)" quantity_name="% activity, α-Lytic protease" quantitative_result=0
compound="COC(=O)[C@H](CCC(=O)O)NC(=O)[C@H](C)NC(=O)OCc1ccccc1 [Glu] (Cbz-Ala-Glu-OMe)" target_of_assay="α-Lytic protease (Lysobacter enzymogenes)" quantity_name="% activity, α-Lytic protease" quantitative_result=0
